Where these numbers come from: ChEMBL document CHEMBL1938331

experiment-description: Cmax in Hartley guinea pig at 10 mg/kg, po
Type: ADME, organism-based, Cavia porcellus
Set-up: dose 10 mg/kg, route oral
condition: in vivo
property-name: Cmax (ng/mL)
Report only the number, with the unit ng/mL understood.

Would you please look over these solved cases?
chemical-string | recorded-number
COc1ccc(C(=O)N(CCCc2cccc(OCC(=O)O)c2)CCC(c2ccccc2)c2ccccc2)cc1 | 40
O=C(O)CCCOc1cccc(CCCn2nc(C(c3ccccc3)c3ccccc3)ccc2=O)c1 | 2860
O=C(O)COc1cccc(CCCn2cc(C(c3ccccc3)c3ccccc3)ccc2=O)c1 | 840
O=C(O)CCCOc1cccc(CCCn2cc(C(c3ccccc3)c3ccccc3)ccc2=O)c1 | 500

Now consider the entry below.
Exercise: Looking for the measured Cmax of "O=C(O)COc1cccc(CCCn2nc(C(c3ccccc3)c3ccccc3)ccc2=O)c1" , can you help?
Key: 730
